B1: PLK2 (parent)
chain: YAELGQCSVFPATDAPEQFISQVT

- Variants of: B1
- protocol.details: protein stability index of a GFP-peptide fusion (GPS, HEK-293T) (PSI 1-6); higher = more stable;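 note: lentivirally expressed fusions sorted by FACS into six bins by GFP to DsRed ratio, PSI derived from sequencing read proportions per bin multiplied by bin number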
- condition.parameters: c terminus: a fixed tail appended
Entry flag: Met if protein stability index reaches 2; Not met if it does not.

mutations | class.label
P11K | Met
S8N | Met
F19A | Met
F10G | Met
I20S | Met
F10M | Met
F19G | Met
I20M | Met
V9T | Met
A2Y | Met
A12R | Not met
F19E | Met
A15S | Not met
L4G | Met
Q6E | Met
P11I | Met
G5N | Met
S21C | Not met
E17C | Not met
P16G | Not met
Y1F | Met
Q18C | Not met
T13Q | Met
V23I | Not met
L4W | Met
F10W | Met
A12P | Met
C7Y | Met
A2G | Met
P16K | Not met
A2M | Met
Q18W | Met
F10L | Met
L4I | Met
Q6S | Met
T24H | Met
Q22N | Met
D14L | Not met
T24F | Not met
V9Q | Met
Q6C | Not met
G5F | Met
G5T | Met

Origin of the recorded values: the supplement of paper PMC10567573
